test system: MCF7 breast; experiment: NCI tumour cell line growth inhibition, 48 h; in the data active means GI50 below about 0.43 µM; inactive means the rest
The categories you may choose from are 1.0 (active), 0.0 (inactive)

The following compounds have reported results that may help.
compound	className
CC1(C)Cc2cccc(OCC(O)CN3CCN(c4ccc(F)cc4)CC3)c2O1 (stereo not given)	0.0
O=C(CCc1nnc(-c2c(Cl)cccc2Cl)o1)c1nc2ccccc2[nH]1	0.0
Nc1ncnc2c1c(-c1cccc(OCc3ccccc3)c1)cn2C1CC(CN2CCCC2)C1 (stereo not given)	1.0

q: Kindly provide the recorded test outcome for the following compound: `O=C(CCCCCCC(=O)N/N=C/c1ccc(N(c2ccccc2)c2ccccc2)cc1)NO`
a: 0.0

q: For COc1ccc(S(=O)(=O)N2CCN(C(=O)OCc3ccccc3)CC2C(=O)NO)cc1 (stereo not given) , which call appears in the assay record?
a: 0.0

###

Known TGI of a selection of molecules
tested on: SNB-19 CNS; assay: NCI tumour cell line growth inhibition, 48 h

q: So what TGI did `O=C(CCCCCCC(=O)N/N=C/c1ccc(N(c2ccccc2)c2ccccc2)cc1)NO` get with SNB-19 CNS?
a: 15.9 µM

###

system: SK-MEL-28 melanoma; assay: NCI tumour cell line growth inhibition, 48 h
The threshold is inclusive: TGI of exactly 30 µM counts as 1; values below receive -1.

Consider the following illustrative entries.
compound	className
CCCCCCCCCCCCOC1C(CNC(=O)C2OC3OC(C)(C)OC3C2NC(=O)CN2CCN(c3ccccn3)CC2)OC2OC(C)(C)OC21 (stereo not given)	-1
Cc1cc2cc(Cl)ccc2nc1C(=O)c1ccccc1	1
CCOC(=O)C1=C(OS(=O)(=O)C(F)(F)F)CCCC1	1
COc1ccc(CN2C(=O)C(Cc3cc(OC)c(OC)c(C)c3OC)N(C(=O)OC(C)C)C(=O)/C2=C/c2cc(OC)c(OC)c(C)c2OC)cc1 (stereo not given)	1
O=C1Nc2cc(Cl)ccc2Oc2cc(Oc3ccccc3)ccc21	1

q: Reported TGI reaches at least 30 µM for `COc1ccc2nc3cccc([N+](=O)[O-])c3c(NCCN(CCO)CCO)c2c1` ?
a: -1

q: Would you say `Oc1ccc2ccccc2c1-c1c(Nc2ccccc2)ccc2ccccc12` shows TGI at minimum 30 µM?
a: -1

q: Kindly determine if TGI recorded for `O=C1C(c2ccc([N+](=O)[O-])cc2)=[N+]([O-])c2ccccc21` is above or exactly 30 µM.
a: 1

###

test system: SNB-19 CNS; assay: NCI tumour cell line growth inhibition, 48 h
Below: a set of entries, each annotated with reported TGI.

Reference set, count: 5
compound	TGI
CC1CC(=O)N2CCCNC2=C1C#N (stereo not given)	> 100 µM
C[C@@H]1CCC2[C@@H](C)[C@H](O[C@H]3O[C@@H]4O[C@@]5(C)CCC6[C@H](C)CCC([C@H]3C)[C@]64OO5)O[C@@H]3O[C@@]4(C)CCC1[C@@]23OO4 (stereo not given in full)	25.2 µM
SC[C@@H]1COC[C@H](CS)S1	> 100 µM
C[N+](C)(C)CCC(=O)N1C/C(=C\c2ccccc2)C(=O)/C(=C/c2ccccc2)C1	12.2 µM
COc1ccc(Nc2c3c4c(cccc4[nH]c2=O)C(=O)c2ccccc2-3)cc1	> 100 µM

q: Request: TGI, test system SNB-19 CNS, entry `O=C(N1CCOCC1)C1(c2ccccc2)CCNCC1`
a: > 100 µM

q: Please state recorded TGI (tested on SNB-19 CNS) of NCCCCC(N)C(=O)N1CCN(c2nc(N3CCCC3)c3nc(Cl)c(NCc4ccccc4)nc3n2)CC1 (stereo not given)
a: 33.2 µM

q: Reported TGI for SNB-19 CNS, given O=C(CC1(O)C(=O)Nc2c(Cl)cccc21)c1ccccc1 (stereo not given) ?
a: > 100 µM

q: Find TGI (SNB-19 CNS) for the entry `O=C(Nc1ccc(Cl)c(Cl)c1)C(=O)Nn1c(=S)[nH]c2ccccc2c1=O`
a: > 100 µM

q: Which TGI is reported with SNB-19 CNS for this entry: NC(=O)NC(CC(=O)O)C(=O)O (stereo not given) ?
a: > 100 µM
